Hi! I'm sharing some pIC50 results obtained with huAChE (Homo sapiens, UniProt P22303).
Sequence (P22303 32-617 isoform P22303-2 limits assumed): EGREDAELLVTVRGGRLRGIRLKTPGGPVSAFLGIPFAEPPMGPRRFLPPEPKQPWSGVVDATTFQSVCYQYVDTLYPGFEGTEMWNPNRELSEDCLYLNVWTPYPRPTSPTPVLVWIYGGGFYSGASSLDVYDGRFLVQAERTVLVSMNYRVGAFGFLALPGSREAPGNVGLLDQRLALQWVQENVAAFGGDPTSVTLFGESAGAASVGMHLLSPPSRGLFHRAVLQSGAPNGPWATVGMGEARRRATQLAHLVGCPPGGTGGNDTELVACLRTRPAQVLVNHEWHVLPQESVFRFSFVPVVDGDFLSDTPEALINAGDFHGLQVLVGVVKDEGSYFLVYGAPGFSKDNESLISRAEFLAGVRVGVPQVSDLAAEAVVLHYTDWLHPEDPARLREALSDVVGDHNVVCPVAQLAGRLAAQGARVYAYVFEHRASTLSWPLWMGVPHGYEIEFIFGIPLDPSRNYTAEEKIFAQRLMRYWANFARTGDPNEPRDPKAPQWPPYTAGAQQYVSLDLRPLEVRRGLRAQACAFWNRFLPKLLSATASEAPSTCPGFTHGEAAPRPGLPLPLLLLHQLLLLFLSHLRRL
// pIC50: -log10(molar conc.)

{"COMPOUND": "COc1cc(CCC(=O)N2CCC(Cc3ccccc3)CC2)ccc1OCCCCN1CCc2ccccc2C1", "RECORDED VALUE": 5.07}
{"COMPOUND": "COc1cc(CCC(=O)N2CCC(Cc3ccccc3)CC2)ccc1OCCCCN1CCC(Cc2ccccc2)CC1", "RECORDED VALUE": 5.23}

Please look at the following compound next.
query: Provide pIC50, tested on huAChE (Homo sapiens, UniProt P22303), for CCN(CCCCCOc1ccc(CCC(=O)N2CCC(Cc3ccccc3)CC2)cc1OC)Cc1ccccc1 [10c] .
result: 5.07

====

- TARGET OR SYSTEM: UniProt P81908
- PROTOCOL SUMMARY: BuChE inhibition, Ellman's assay
- Format: biochemical, equine
- CONDITION CONTEXT: Selectivity Index, eeAChE and eqBuChE
OBSERVED PROPERTY: SI
Could you respond with only the numeric value?

query: Provide SI, tested on UniProt P81908, for COc1cc(C(=O)N2CCC(Cc3ccccc3)CC2)ccc1OCCCCN1CCN(Cc2ccccc2)CC1 .
result: 2.5

query: Provide SI, tested on UniProt P81908, for COc1cc(CCC(=O)N2CCC(Cc3ccccc3)CC2)ccc1OCCCCN1CCC(C(=O)c2ccc(F)cc2)CC1 .
result: 16

query: Provide SI, tested on UniProt P81908, for COc1cc(C(=O)N2CCC(Cc3ccccc3)CC2)ccc1OCCCCN1CCC(Cc2ccccc2)CC1 .
result: 8.9

query: Provide SI, tested on UniProt P81908, for CCN(CCOc1ccc(CCC(=O)N2CCC(Cc3ccccc3)CC2)cc1OC)Cc1ccccc1 [10a] .
result: 16

query: Provide SI, tested on UniProt P81908, for COc1cc(C(=O)N2CCC(Cc3ccccc3)CC2)ccc1OCCCCN1CC(C)CC(C)C1 (centres unmarked) .
result: 0.6

====

- TARGET OR SYSTEM: eeAChE (Electrophorus electricus)
- Sequence (O42275 24-633): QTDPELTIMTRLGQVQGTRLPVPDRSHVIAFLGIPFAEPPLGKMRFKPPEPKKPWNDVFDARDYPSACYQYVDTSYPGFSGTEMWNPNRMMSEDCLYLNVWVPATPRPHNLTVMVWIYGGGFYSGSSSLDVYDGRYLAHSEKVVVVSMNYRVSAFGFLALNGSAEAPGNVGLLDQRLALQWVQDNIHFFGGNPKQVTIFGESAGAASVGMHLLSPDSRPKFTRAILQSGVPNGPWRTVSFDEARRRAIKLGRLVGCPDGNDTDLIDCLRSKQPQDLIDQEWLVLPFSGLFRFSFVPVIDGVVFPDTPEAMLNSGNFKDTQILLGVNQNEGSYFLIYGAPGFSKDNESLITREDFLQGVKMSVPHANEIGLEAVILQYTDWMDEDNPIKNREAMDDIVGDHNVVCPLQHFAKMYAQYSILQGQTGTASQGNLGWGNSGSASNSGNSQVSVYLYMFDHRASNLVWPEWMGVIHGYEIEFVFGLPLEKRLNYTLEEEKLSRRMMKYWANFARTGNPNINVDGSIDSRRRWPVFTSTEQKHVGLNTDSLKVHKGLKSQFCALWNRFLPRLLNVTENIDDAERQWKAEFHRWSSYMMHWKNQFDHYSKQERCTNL
Decision: IC50 beneath 6 µM gives Satisfied; IC50 meeting or exceeding 6 µM gives Not satisfied.

Consider the worked cases shown below.
{"MOLECULE": "CCN(CCCCCCCCCCOc1ccc(CCC(=O)N2CCC(Cc3ccccc3)CC2)cc1OC)Cc1ccccc1 [10f]", "LABEL": "Satisfied"}
{"MOLECULE": "COc1cc(CCC(=O)N2CCC(Cc3ccccc3)CC2)ccc1OCCCCN1CCN(Cc2ccccc2)CC1", "LABEL": "Satisfied"}
{"MOLECULE": "COc1cc(C(=O)N2CCC(Cc3ccccc3)CC2)ccc1OCCCCN1CCc2ccccc2C1", "LABEL": "Satisfied"}
{"MOLECULE": "COc1cc(CCC(=O)N2CCC(Cc3ccccc3)CC2)ccc1OCCCCN1CCC(Cc2ccccc2)CC1", "LABEL": "Satisfied"}
{"MOLECULE": "COc1cc(CCC(=O)N2CCC(Cc3ccccc3)CC2)ccc1OC(=O)CCCCN1CCC(Cc2ccccc2)CC1", "LABEL": "Not satisfied"}

query: Quick check: IC50 of COc1cc(CCC(=O)N2CCC(Cc3ccccc3)CC2)ccc1OC(=O)CCCCN1CCC(CCCc2ccccc2)CC1 under 6 µM?
result: Not satisfied

query: Quick check: IC50 of CCN(CCCCCCCCCOc1ccc(CCC(=O)N2CCC(Cc3ccccc3)CC2)cc1OC)Cc1ccccc1 [10e] under 6 µM?
result: Not satisfied

====

- TARGET OR SYSTEM: huBuChE (Homo sapiens)
- Sequence (P06276 29-602): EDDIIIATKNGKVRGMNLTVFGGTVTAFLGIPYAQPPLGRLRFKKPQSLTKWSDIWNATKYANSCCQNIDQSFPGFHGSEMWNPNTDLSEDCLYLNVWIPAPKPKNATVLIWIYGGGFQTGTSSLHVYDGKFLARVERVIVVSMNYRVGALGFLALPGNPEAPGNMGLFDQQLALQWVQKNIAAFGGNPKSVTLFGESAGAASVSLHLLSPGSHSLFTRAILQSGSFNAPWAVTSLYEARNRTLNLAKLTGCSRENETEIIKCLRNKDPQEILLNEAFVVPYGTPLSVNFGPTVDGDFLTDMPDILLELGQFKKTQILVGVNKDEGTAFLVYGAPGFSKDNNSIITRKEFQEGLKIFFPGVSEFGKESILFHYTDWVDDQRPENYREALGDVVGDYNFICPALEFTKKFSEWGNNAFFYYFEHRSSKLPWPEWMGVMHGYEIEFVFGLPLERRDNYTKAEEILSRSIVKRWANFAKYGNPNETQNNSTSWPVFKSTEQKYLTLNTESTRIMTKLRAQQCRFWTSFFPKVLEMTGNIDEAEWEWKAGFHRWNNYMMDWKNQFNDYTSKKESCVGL
Decision: IC50 beneath 100 nM gives Met; IC50 meeting or exceeding 100 nM gives Not met.

{"MOLECULE": "CCN(CCCCOc1ccc(C(=O)N2CCC(Cc3ccccc3)CC2)cc1OC)Cc1ccccc1", "LABEL": "Not met"}
{"MOLECULE": "CCN(CCCOc1ccc(CCC(=O)N2CCC(Cc3ccccc3)CC2)cc1OC)Cc1ccccc1 [10b]", "LABEL": "Met"}

Please examine the following record next.
query: Quick check: IC50 of COc1cc(CCC(=O)N2CCC(Cc3ccccc3)CC2)ccc1OCCCCN1CCC(c2ccccc2)CC1 under 100 nM?
result: Not met

====

- TARGET OR SYSTEM: eqBuChE (Equus caballus, UniProt P81908)
- Sequence (P81908 whole entry): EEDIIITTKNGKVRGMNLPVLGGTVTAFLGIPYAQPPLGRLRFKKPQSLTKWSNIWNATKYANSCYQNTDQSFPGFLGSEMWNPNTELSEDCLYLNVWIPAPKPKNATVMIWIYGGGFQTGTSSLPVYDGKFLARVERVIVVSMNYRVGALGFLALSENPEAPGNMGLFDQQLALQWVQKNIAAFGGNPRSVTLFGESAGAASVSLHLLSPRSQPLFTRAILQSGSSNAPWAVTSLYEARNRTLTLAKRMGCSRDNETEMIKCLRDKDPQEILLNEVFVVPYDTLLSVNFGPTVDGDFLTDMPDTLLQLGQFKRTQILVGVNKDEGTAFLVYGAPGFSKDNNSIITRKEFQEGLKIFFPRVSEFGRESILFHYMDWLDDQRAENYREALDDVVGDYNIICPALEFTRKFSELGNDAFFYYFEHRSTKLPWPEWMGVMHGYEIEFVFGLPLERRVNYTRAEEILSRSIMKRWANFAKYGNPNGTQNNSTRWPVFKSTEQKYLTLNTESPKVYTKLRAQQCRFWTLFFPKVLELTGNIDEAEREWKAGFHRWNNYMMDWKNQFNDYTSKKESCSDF
Decision: IC50 beneath 0.8 µM gives 1.0; IC50 meeting or exceeding 0.8 µM gives 0.0.

{"MOLECULE": "CCN(CCCCCCOc1ccc(CCC(=O)N2CCC(Cc3ccccc3)CC2)cc1OC)Cc1ccccc1 [10d]", "LABEL": 1.0}
{"MOLECULE": "CCN(CCCCCCCCCCOc1ccc(CCC(=O)N2CCC(Cc3ccccc3)CC2)cc1OC)Cc1ccccc1 [10f]", "LABEL": 1.0}
{"MOLECULE": "COc1cc(CCC(=O)N2CCC(Cc3ccccc3)CC2)ccc1OC(=O)CCCCN1CCN(Cc2ccccc2)CC1", "LABEL": 0.0}
{"MOLECULE": "CCN(CCCCOc1c(OC)cc(C(=O)N2CCN(c3ccc(F)cc3)CC2)cc1OC)Cc1ccccc1", "LABEL": 0.0}

query: Quick check: IC50 of CCN(CC)CCCCOc1ccc(C(=O)N2CCC(Cc3ccccc3)CC2)cc1OC under 0.8 µM?
result: 0.0

query: Quick check: IC50 of COc1cc(CCC(=O)N2CCC(Cc3ccccc3)CC2)ccc1OCCCCN1CCC(c2noc3ccccc23)CC1 under 0.8 µM?
result: 1.0

query: Quick check: IC50 of CCN(CCCCCOc1ccc(CCC(=O)N2CCC(Cc3ccccc3)CC2)cc1OC)Cc1ccccc1 [10c] under 0.8 µM?
result: 1.0

====

Hi! I'm sharing some IC50 results obtained with UniProtKB P81908.
State the answer as a number, implicitly in nM.

query: Provide IC50, tested on UniProtKB P81908, for COc1cc(C(=O)N2CCC(Cc3ccccc3)CC2)ccc1OCCCCN1CCc2ccccc2C1 .
result: 850

query: Provide IC50, tested on UniProtKB P81908, for COc1cc(CCC(=O)N2CCC(Cc3ccccc3)CC2)ccc1OCCCCN1CCc2ccccc2C1 .
result: 87

query: Provide IC50, tested on UniProtKB P81908, for CCN(CC)CCCCOc1ccc(CCC(=O)N2CCC(Cc3ccccc3)CC2)cc1OC .
result: 280

query: Provide IC50, tested on UniProtKB P81908, for COc1cc(CCC(=O)N2CCC(Cc3ccccc3)CC2)ccc1OCCCCN1CCN(Cc2ccccc2)CC1 .
result: 3300

query: Provide IC50, tested on UniProtKB P81908, for COc1cc(CCC(=O)N2CCC(Cc3ccccc3)CC2)ccc1OCCCCN1CCC(Cc2ccccc2)CC1 .
result: 93

query: Provide IC50, tested on UniProtKB P81908, for COc1cc(C(=O)N2CCC(Cc3ccccc3)CC2)ccc1OCCCCN1CCC(Cc2ccccc2)CC1 .
result: 660

query: Provide IC50, tested on UniProtKB P81908, for COc1cc(CCC(=O)N2CCC(Cc3ccccc3)CC2)ccc1OCCCCN1CCC(c2ccccc2)CC1 .
result: 130

query: Provide IC50, tested on UniProtKB P81908, for COc1cc(C(=O)N2CCC(Cc3ccccc3)CC2)ccc1OCCCCN1CC(C)CC(C)C1 (centres unmarked) .
result: 3700

====

Hi! I'm sharing some IC50 results obtained with huAChE (Homo sapiens).
State the answer as a number, implicitly in µM.

{"MOLECULE": "COc1cc(CCC(=O)N2CCC(Cc3ccccc3)CC2)ccc1OCCCCN1CCC(CCCc2ccccc2)CC1", "TARGET OR SYSTEM": "huAChE (Homo sapiens)", "IC50 / µM": 6.7}
{"MOLECULE": "COc1cc(CCC(=O)N2CCC(Cc3ccccc3)CC2)ccc1OCCCCN1CCC(c2ccccc2)CC1", "TARGET OR SYSTEM": "huAChE (Homo sapiens)", "IC50 / µM": 6.9}
{"MOLECULE": "CCN(CCCCOc1ccc(C(=O)N2CCC(Cc3ccccc3)CC2)cc1OC)Cc1ccccc1", "TARGET OR SYSTEM": "huAChE (Homo sapiens)", "IC50 / µM": 3.9}

Please look at the following molecule next.
query: Name the recorded IC50 of the item CCN(CCCOc1ccc(CCC(=O)N2CCC(Cc3ccccc3)CC2)cc1OC)Cc1ccccc1 [10b] in your answer.
result: 5.9

====

Listing of recorded SI by entry.
- TARGET OR SYSTEM: UniProtKB P06276
- PROTOCOL SUMMARY: BuChE inhibition, Ellman's assay
- Type: biochemical
- CONDITION CONTEXT: Selectivity Index, huAChE and huBuChE
Could you respond with only the numeric value?

{"COMPOUND": "CCN(CCCOc1ccc(CCC(=O)N2CCC(Cc3ccccc3)CC2)cc1OC)Cc1ccccc1 [10b]", "SI": 65}

query: Name the recorded SI of the item COc1cc(CCC(=O)N2CCC(Cc3ccccc3)CC2)ccc1OCCCCN1CCC(c2ccccc2)CC1 [8h] in your answer.
result: 36

query: Name the recorded SI of the item COc1cc(CCC(=O)N2CCC(Cc3ccccc3)CC2)ccc1OCCCCN1CCC(Cc2ccccc2)CC1 [8a] in your answer.
result: 37
